- Tested on: COLO 205
- assay.details: NCI tumour cell line growth inhibition, 48 h
Calls of active or inactive are those of the source. No stated cut-off is given here; in the data, active = GI50 up to about 1.1 µM and inactive = higher.
Outcomes: Yes for active, No for inactive

CC(C)(C)NCC(O)COc1cccc2[nH]c(C#N)cc12 (stereo not given) = No
Nc1ncnc2c1nc(Cl)n2C1OC(CO)C(O)C1O (stereo not given) = Yes
Cc1ccccc1NC(=O)O/N=C(\Cl)C(C)C = No
CC1=NN=C(C)C1/N=N/c1ccc2[nH]c(C)nc2c1 = No
O=c1cnn(C2OC(CO)C(O)C2O)c(=S)[nH]1 (stereo not given) = No
O=c1[nH]c(=O)n(COCc2ccccc2)c2ccc(Br)cc12 = No
N#Cc1c(N2CCN(c3ccc([N+](=O)[O-])cc3)CC2)[n+]([O-])c2ccc(Cl)cc2[n+]1[O-] = No
COc1ccc(P2(=S)OCCOP(=S)(c3ccc(OC)cc3)S2)cc1 (stereo not given) = No
O=S1(=O)c2cnccc2N=C(NCc2ccccc2)N1c1ccccc1 = No
CC1(C)O[C@@H](CO)[C@H]([C@@]23OC[C@H]4OC(C)(C)OC4[C@@H]2OC(C)(C)O3)O1 (stereo not given in full) = No

----------
- Test system: SW-620
- assay.details: NCI tumour cell line growth inhibition, 48 h
The source made the active and inactive calls. Rule as the data show it: active = GI50 up to about 1.1 µM and inactive = higher.
readout.label: GI50

CC(=O)NCC1(c2ccccc2)CCN(CC2COc3ccccc3O2)CC1 (stereo not given) = > 100 µM (inactive)
C/C([O-])=C(/c1nc(-c2ccc([N+](=O)[O-])o2)no1)[n+]1cc(C)ccc1C = 5.31 µM (inactive)
CC(C)=CCc1cc(/C=C/C(=O)O)cc(CC=C(C)C)c1O [ARTEPILLIN] = > 100 µM (inactive)
COCN1C(N)=C(C(=O)OC(C)(C)C)C2=CC(=O)C=CC21C (stereo not given) = 4.99 µM (inactive)
C[N+](C)=c1nc(N2CCc3ccccc3C2)ss1.[O-][Cl+3]([O-])([O-])[O-] = > 100 µM (inactive)

----------
- System: NCI-H23
- assay.details: NCI tumour cell line growth inhibition, 48 h
The source made the active and inactive calls. No stated cut-off is given here; in the data, active = GI50 up to about 1.1 µM and inactive = higher.
Outcomes: active, inactive

O=C(CSc1nc(-c2ccccc2)c(-c2ccccc2)[nH]1)N/N=C/c1ccc(O)cc1 = inactive
COC1C=CC(O)C(CO)O1 (stereo not given) = inactive
COc1ccc2c(c1)C1=NCCN(C)c3ccc([N+](=O)[O-])c(c31)N2 = active
CC(O)/C=C/C1OC(=O)CC1Nc1ccc(C=O)cc1 (stereo not given) = inactive
C=C(c1ccccc1N)[C@@]1(O)C[C@H](/C(=C\C)CO)C[C@@H]1NCc1ccccc1 = inactive
Cc1c(C)c(S(=O)(=O)N(CCCCCCN)OCCCN)c(C)c2c1OC(C)(C)CC2 = inactive
CC1CCC(O)C(C(O)CC2CC(=O)N(C)C(=O)C2)C1 (stereo not given) = inactive
CC1(C)O[C@@H]2C[C@H]3[C@@H]4C[C@H](F)C5=CC(=O)C=C[C@]5(C)[C@@]4(F)[C@@H](O)C[C@]3(C)[C@]2(C(=O)CO)O1 [FLUOCINOLONE ACETONIDE] = inactive
CC12OOC(c3ccccc31)c1c2ccc2ccccc12 (stereo not given) = inactive
CC1=NN=C(C)C1/N=N/c1ccc2[nH]c(C)nc2c1 = inactive
Nc1ncc(N)c(NCC2(CO)CC(CCc3ccccc3)C2)n1 (stereo not given) = inactive
CC1(C)C(=NN=C(N)N)C(C)(C)C1=NN=C(N)N = inactive
O=C(N/N=C/C=C/c1ccc([N+](=O)[O-])o1)c1ccc(Br)s1 = inactive
COc1ccc2c(c1)CN1C(=N2)CSC1c1c(Cl)cccc1[N+](=O)[O-] (stereo not given) = inactive
COc1ccc(C(OC(=O)[C@H](O[Si](C)(C)C(C)(C)C)[C@@H](NC(=O)c2ccccc2)c2ccccc2)c2ccc(OC)cc2)cc1 = inactive
C[C@H](N)C(=O)Nc1ccc(-c2nc3ccccc3s2)cc1 = inactive
Nc1ccc(-c2nc3ccccc3s2)cc1F = inactive
COC(=O)C1=C(O)C(C(=O)OC)[C@]2(O)[C@@H](C(=O)OC)[C@H]1C[C@@H](c1ccccc1)[C@@H]2C(=O)OC (stereo not given in full) = inactive
CSc1nc2ccccc2c(=O)n1/N=C1\C(=O)N(CN2CCOCC2)c2ccc(Cl)cc21 = inactive
Cc1ccc(O)c(C2=CC(c3cccc(Br)c3)SC(=N)N2)c1 (stereo not given) = inactive

----------
- Test system: HCT-15
hey, just use Y if measured GI50 is less than 2 µM, otherwise N

CCCCC[C@H](O)[C@H](C)C=C1SCCCS1 = N
O=C(CCC1CCCCN1)Nc1ccc2c(c1)C(=O)c1ccc(NC(=O)CCN3CCCCC3)cc1C2=O (stereo not given) = Y
O=C(O)CN(CCNC(=O)OCC1c2ccccc2-c2ccccc21)CCNC(=O)OCC1c2ccccc2-c2ccccc21 = N
COc1cccc(-c2cc(O)c3cc(C)cnc3n2)c1 = Y
O=S1(=O)c2cnccc2N=C(NCc2ccccc2)N1c1ccccc1 = N
CCOc1cc(NC(C)=O)ccc1C(=O)NN1C(=O)C(Cl)C1c1ccco1 (stereo not given) = N
CCCCOC(=O)C(NC(C(=O)OCCCC)c1cc(C(C)(C)C)c(O)c(C(C)(C)C)c1)c1cc(C(C)(C)C)c(O)c(C(C)(C)C)c1 (stereo not given) = N
N#C/C(=C/c1cccc(Oc2ccccc2)c1)c1ccccc1 = N
C#CCOCn1ccc(=O)[nH]c1=O = N
C=CCC1([C@H](C)[C@@H](OC(C)=O)c2cc(OC)c(OC)c(OC)c2)C[C@@H](OC)CCC1=O (stereo not given in full) = N

----------
- Test system: SF-268
- assay.details: NCI tumour cell line growth inhibition, 48 h
Active and inactive are the calls of the source. No stated cut-off is given here; in the data, active = GI50 up to about 1.1 µM and inactive = higher.
GI50 values for the compounds below.
readout.label: GI50

CNc1cc2oc(=O)cc(C)c2cc1C = > 100 µM (inactive)
COP(=O)(OC)[C@H](O)[C@H]1C[C@@H]1c1ccccc1 = > 100 µM (inactive)
Nc1nc(N)c2ncn(-c3ccc(Cl)c(Cl)c3)c2n1 = 31.7 µM (inactive)
CC(C)(O)CO/N=C1\C(=C2\C(=O)Nc3ccccc32)Nc2ccccc21 = 2.33 µM (inactive)
CC(C)N(C(C)C)S(=O)(=O)C[C@]12CC[C@H](CC13OCC(CS(=O)(=O)c1ccccc1)O3)C2(C)C (stereo not given in full) = 59.2 µM (inactive)
COC(=O)C1(CCCCl)CCCN1C(=O)OC(C)(C)C (stereo not given) = > 100 µM (inactive)
O=C(O)c1ccccc1C(=O)c1ccco1 = > 100 µM (inactive)
COC(=O)C1CC(C(=O)OC)c2nc3cc([N+](=O)[O-])ccc3nc21 (stereo not given) = 26.4 µM (inactive)
C=C1c2[nH]c3c([N+](=O)[O-])c(OC)ccc3c2CCN1C(C)=O = 28.7 µM (inactive)
C[As+](C)(c1ccc(Br)c([N+](=O)[O-])c1)c1ccc(Br)c([N+](=O)[O-])c1 = > 100 µM (inactive)

----------
GI50 values for the molecules below.
- Tested on: SNB-75
- assay.details: NCI tumour cell line growth inhibition, 48 h
Active and inactive are the calls of the source. Rule as the data show it: active = GI50 up to about 1.1 µM and inactive = higher.
readout.label: GI50

CCOC(=O)/C(C(=O)Nc1ccc(Cl)cc1)=C(/N)N1CCCC1 = > 100 µM (inactive)
Nc1nnc(N)n1NC(=O)C(=O)Nc1ccc([N+](=O)[O-])cc1 = > 100 µM (inactive)
O=C(NCCCCl)c1c(O)c2ccccc2[nH]c1=O = > 54.5 µM (inactive)
O=C(CSc1ncccn1)N/N=C/c1ccccc1OCc1ccccc1 = 21.5 µM (inactive)
O=C(c1ccccc1)N1CCc2c([nH]c3ccccc23)C1 = 66.8 µM (inactive)
Cc1cccc(Nc2nc(NNC(=O)Cc3ccccc3)nc(NNC(=O)c3ccncc3)n2)c1 = > 10 µM (inactive)
Nc1ccc(C(=O)N/C(=C\c2cccc([N+](=O)[O-])c2)c2nc3c4c(ccc3[nH]2)C(=O)c2ccccc2C4=O)cc1 = 1.76 µM (inactive)
CCCNC(/C=C/[Si](C)(C)C)CO.CCCNCC(O)/C=C/[Si](C)(C)C (centres undefined) = 40.6 µM (inactive)
C=C(C)[C@@H]1CC[C@@]2(C)[C@H]1[C@H]1CCC3[C@@]4(C)CC[C@H](O)C(C)(C)[C@@H]4CC[C@@]3(C)[C@]1(C)C[C@@H]2O (some centres undefined) [CALENDULADIOL] = 27.3 µM (inactive)

----------
- Test system: SK-MEL-28
- assay.details: NCI tumour cell line growth inhibition, 48 h
Activity calls are given as the source filed them. Rule as the data show it: active = GI50 up to about 1.1 µM and inactive = higher. Where a SMILES comes first, the peptide text is derived from it. The star is where a group is joined. Boc = CC(C)(C)OC(=O)*
GI50 values for the compounds below.
readout.label: GI50

Nc1nc(NCC2(CO)CC2)cc(=O)[nH]1 = > 100 µM (inactive)
COc1ccc(/C=C2\C[C@H]3[C@@H]4CC=C5C[C@@H](O)CC[C@]5(C)[C@H]4CC[C@]3(C)\C2=N\O)cc1 = 24.2 µM (inactive)
Cc1cnc2cc(Cl)ccc2c1SCC(=O)O = > 100 µM (inactive)
Nc1nn(CC(O)CO)c(=O)s1 (configuration not stated) = 7.69 µM (inactive)
Cc1cc(S(=O)(=O)O)ccc1/N=N/c1c(O)ccc2ccccc12 = > 100 µM (inactive)
CSc1c2c(C)n[nH]c2nn1-c1ccccc1 = > 100 µM (inactive)
CC1=NC(=Cc2cc(Br)cc(Br)c2)C(=O)N1n1c(-c2ccccc2)nc2ccccc2c1=O = > 100 µM (inactive)
Cc1ccc(SC2C(=O)C3CC(OCc4ccccc4)C2(C)C3(C)C)cc1 (configuration not stated) = > 100 µM (inactive)
C(=C\c1cc(-c2ccc3ccccc3n2)nc2ccc3ccccc3c12)/c1ccc2ccccc2n1 = > 100 µM (inactive)
CNc1cc2oc(=O)cc(C)c2cc1C = > 100 µM (inactive)
CC(=O)N1CCn2c1nc1cc(Cl)ccc12 = > 100 µM (inactive)
COc1ccc(CNC(=O)[C@H](Cc2ccc(O)cn2)NC(C)=O)cc1OC = > 100 µM (inactive)
CC(C)Cn1cnc2c(SCc3ccc(Cl)cc3Cl)nc(N)nc21 = 57.1 µM (inactive)
COC(=O)C1CCC(=O)N1/C(C)=N/NC(=O)Nc1ccc(Cl)c(Cl)c1 (configuration not stated) = > 100 µM (inactive)
CC(=O)OC1(C)N=NC2(CCCCC2)O1 (configuration not stated) = > 100 µM (inactive)
O=c1[nH]c(-c2ccc(-c3nc4cc([N+](=O)[O-])ccc4c(=O)[nH]3)cc2)nc2cc([N+](=O)[O-])ccc12 = > 100 µM (inactive)
CCCC12Cc3c(OC)ccc(OC)c3CC(Cc3c(OC)ccc(OC)c31)C2=O (configuration not stated) = > 100 µM (inactive)
Cc1cc2c(c(C)c1O)C(C)(C)CN2C(=O)C(C)(C)C = > 100 µM (inactive)
O=C(Cc1ccccc1)NN1C(=O)C(Cl)C1c1cccc([N+](=O)[O-])c1 (configuration not stated) = > 92.9 µM (inactive)
C=C(C)[C@@H]1CC[C@@]2(C)[C@H]1[C@H]1CCC3[C@@]4(C)CC[C@H](O)C(C)(C)[C@@H]4CC[C@@]3(C)[C@]1(C)C[C@@H]2O (some centres not stated) = > 100 µM (inactive)
CCO/C=C\C12CCCC1NC(c1ccccc1)(c1ccccc1)O2 (configuration not stated) = 40.5 µM (inactive)
CC(C)(O)CO/N=C1\C(=C2\C(=O)Nc3ccccc32)Nc2ccccc21 = 2.38 µM (inactive)
CC(=O)NCCCCCCNC(C)=O [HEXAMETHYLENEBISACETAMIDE] = 6980 µM (inactive)
N=C(N)C1CN(CCc2c[nH]cn2)C(=O)NC1=O (configuration not stated) = > 100 µM (inactive)
O=C1N(c2ccccc2)C(=O)C2(SC=NN2Cc2ccccc2)N1c1ccccc1 (configuration not stated) = > 100 µM (inactive)
OC(c1cccnc1)C(F)(F)c1nc2ccccc2o1 (configuration not stated) = > 100 µM (inactive)
Clc1ccccc1-c1nnc2c(-c3ccccc3)nc3ccccc3n12 = > 100 µM (inactive)
Clc1ccc(-c2nc3cc(C45CC6CC(CC(C6)C4)C5)ccc3[nH]2)cc1 = 75 µM (inactive)
Cc1ccc2c(c1)-c1c(C#N)c(N)nc(-c3ccc(Cl)cc3)c1CCS2(=O)=O = 20.6 µM (inactive)
COc1ccc(CC(C)NCC(O)c2ccc(O)c(NC=O)c2)cc1 (configuration not stated) = > 100 µM (inactive)
CCCCCCCCCCCCCCC(O)C[N+](C)(CCO)CCO (configuration not stated) = 9.79 µM (inactive)
O=Cc1cc(C(=O)OCc2ccccc2)n(S(=O)(=O)c2ccccc2)c1 = 12.8 µM (inactive)
CCCCCN1C(=O)C(Cc2ccccc2)N=C(c2ccc(O)cc2)c2cc(Cl)ccc21 (configuration not stated) = 15.1 µM (inactive)
ClCc1nnc2n1-c1ccc(Cl)cc1SC2 = 4.74 µM (inactive)
COc1cc(/C=C/C2=C(C#N)C(=O)OC2(C)C)ccc1O = > 100 µM (inactive)
O=S(=O)(N/N=C/c1cccc(Cl)c1Cl)c1ccccc1 = > 100 µM (inactive)
CC12CC3c4ccccc4CN1C3(c1ccccc1)OC2=O (configuration not stated) = > 100 µM (inactive)
Cc1nnc(N)nc1/C=C/c1c(O)ccc2ccccc12 = 29.7 µM (inactive)
O=C(Nc1nncs1)NS(=O)(=O)n1c(=S)sc2ccccc21 = > 100 µM (inactive)
COc1cc2c(cc1OC)OC(c1c(OC)ccc(OC)c1O)CC2 (configuration not stated) = > 100 µM (inactive)
CC(C)(C)C1=CC(=N/N=c2\scc(-c3ccccc3)n2-c2ccccc2)C=C(C(C)(C)C)C1=O = > 100 µM (inactive)
COC(=O)CNC(=O)C(Cc1ccccc1)NC(=O)C(CCSC)NC(=O)C(Cc1ccc(O)cc1)NC(=O)OC(C)(C)C (configuration not stated) (Boc-YMFG-OMe; configuration not given here) = 18.2 µM (inactive)
